- Measurement Target: T1, cynomolgus GPC3 on stably transfected SK-HEP-1 cells (cynomolgus, UniProt A0A2K5VK50 24-553)
- T1 construct: whole, on cells; also called SK-HEP-1::cyno GPC3; SK-HEP-1::cynomolugus GPC3
- Procedure Summary: MSD-based (ECL) cell binding assay on transfected SK-HEP-1 cells
Exercise: state measured EC50 for each of the binders provided.
The answer is to be given in nM; state only the numeric part.

Return the recorded EC50 value; entry: lipocalin mutein of SEQ ID NO: 12 (designed binder, hNGAL (Lcn2) mutein; also called optimized GPC3 specific lipocalin mutein) QDSTSDLIPAPPLSKVPLQQNFQDNQFQGKWYVVGRAGNVALREDKDPPKMRATIYELKEDKSYDVTNVVFAGKKCKYSIGTFVPGSQPGEFTLGRIKSPPGNTANLVRVVSTNYNQHAMVFFKEVYQNREIFFIILYGRTKELTSELKENFIRFSKSLGLPENHIVFPVPIDQCIDGSAWSHPQFEK
1.7

Return the recorded EC50 value; entry: lipocalin mutein of SEQ ID NO: 7 (designed binder, hNGAL (Lcn2) mutein; also called optimized GPC3 specific lipocalin mutein) QDSTSDLIPAPPLSKVPLQQNFQDNQFQGKWYVVGVAGNGMLREDKDPLKMRATIYELKEDKSYDVTSVAFRNKKCHYKIGTFVPGSQPGEFTLGQIKSGPGETSNLVRVVSTNYNQHAMVFFKEVRQNREWFFITLYGRTKELTSELKENFIRFSKSLGLPENHIVFPVPIDQCIDGSAWSHPQFEK
2.8

Return the recorded EC50 value; entry: lipocalin mutein of SEQ ID NO: 14 (designed binder, hNGAL (Lcn2) mutein; also called optimized GPC3 specific lipocalin mutein) QDSTSDLIPAPPLSKVPLQQNFQDNQFQGKWYVVGRAGNVGLREDKDPPKMWATIYELKEDKSYDVTNVRFAGKKVKYTIGTFVPGSQPGEFTLGQIKSEPGNTATLVRVVSTNYNQHAMVFFKEVYQNREIFFITLYGRTKELTSELKENFIRFSKSLGLPENHIVFPVPIDQAIDGSAWSHPQFEK
15.4

Return the recorded EC50 value; entry: lipocalin mutein of SEQ ID NO: 9 (designed binder, hNGAL (Lcn2) mutein; also called optimized GPC3 specific lipocalin mutein) QDSTSDLIPAPPLSKVPLQQNFQDNQFQGKWYVVGRAGNVGLREDKDPPKMWATIYELKEDKSYDVTNVRFARKKCTYSIGTFVPGSQPGEFTLGQIKSEPGGTANLVRVVSTNYNQHAMVFFKEVYQNREIFFIILYGRTKELTSELKENFIRFSKSLGLPENHIVFPVPIDQCIDGSAWSHPQFEK
1.9
